- EXPERIMENT_DESCRIPTION: Solubility of dye when preparing the ink sheet dye-providing layer-coating composition
- Assay type: physicochemical
- Parameters: key: A: the dye easily dissolves; B: the dye dissolves; C: the dye is sparingly soluble, but dissolves
- DETAILS: methyl ethyl ketone/toluene (1/1), polyvinylbutyral resin

{"COMPOUND": "CCC(C)n1nc(C(C)(C)C)c(N=Nc2ccc([N+](=O)[O-])cc2)c1N (stereo not drawn) [(8)]", "Solubility of dye": "A"}
{"COMPOUND": "CC(C)Cn1nc(C(C)(C)C)c(N=Nc2ccc([N+](=O)[O-])cc2)c1N [(7)]", "Solubility of dye": "A"}
{"COMPOUND": "CCCCN(CCCC)C(=O)c1ccc2c(c1)C(=O)C(c1nc3ccc(C(C)C)cc3cc1O)C2=O (stereo not drawn) [Dye for Comparison 3, reference compound]", "Solubility of dye": "B"}
{"COMPOUND": "CCN(CCOc1ccc(C2CCCCC2)cc1)c1ccc(C=C(C#N)C#N)c(C)c1 [Dye for Comparison 2, reference compound]", "Solubility of dye": "A"}
{"COMPOUND": "CCCCCn1nc(C(C)(C)C)c(N=Nc2ccc([N+](=O)[O-])cc2)c1N [(5)]", "Solubility of dye": "A"}
{"COMPOUND": "CC(C)CCn1nc(C(C)(C)C)c(N=Nc2ccc([N+](=O)[O-])cc2)c1N [(9)]", "Solubility of dye": "A"}
